Biological target: κ opioid receptor (KOR) (Homo sapiens, UniProt P41145)
Test: Radioligand competition binding, KOR ([3H]-U69593), HEK293 cell homogenates
Details: read-out: KOR % (percent inhibition), at 10,000 nM; [3H]-U69593
Cut-off 60% on inhibition at 10 µM, inclusive. At or above means Satisfied; below means Not satisfied.

Check out these entries, answers already filled in.
C#Cc1ccc2c(c1)C(c1ccccc1F)=N[C@@H](C)c1c(C(N)=O)ncn1-2 [MP-III-018.B]
Not satisfied
C#Cc1ccc2c(c1)C(c1ccccc1F)=N[C@H](C)c1c(C(=O)N(C)C)ncn1-2 [GL-II-73]
Not satisfied
C#Cc1ccc2c(c1)C(c1ccccn1)=NCc1c(-c3nc(C)no3)ncn1-2 [MP-III-085]
Not satisfied
C#Cc1ccc2c(c1)C(c1ccccc1F)=N[C@@H](C)c1c(C(=O)OCCC)ncn1-2 [GL-I-32]
Satisfied
C#Cc1ccc2c(c1)C(c1ccccc1F)=N[C@@H](C)c1c(C(=O)SCC)ncn1-2 [GL-I-77]
Satisfied
C#Cc1ccc2c(c1)C(c1ccccc1F)=NCc1c(-c3ocnc3C)ncn1-2 [KRM-III-65]
Satisfied

Then there is this molecule:
Hello, I need to know if C#Cc1ccc2c(c1)C(c1ccccc1F)=N[C@@H](C)c1c(C(=O)O)ncn1-2 [SH-053-2′F-S-CH3-Acid] has measured inhibition at 10 µM not below 60%. Thanks! Not satisfied

* * *

Task for the reader: assign each of the following compounds its reported BZR % (percent inhibition).
Tested on: synaptic benzodiazepine-sensitive receptors (BZR), GABAAR
Assay: 3H-flunitrazepam binding, rat brain homogenate
Details: at 10,000 nM
A complete answer gives the number followed by the unit.

As a guide, the following entries are already answered.
C#Cc1ccc2c(c1)C(c1ccccc1)=NCc1c(-c3cnco3)ncn1-2
95%
Cc1ncoc1-c1ncn2c1CN=C(c1ccccc1F)c1cc(Br)ccc1-2
96%

Lookup result for CCOC(=O)c1ncn2c1[C@@H](C)N=C(c1ccccc1F)c1cc(C3CC3)ccc1-2 ; measured BZR % (percent inhibition): 62%

* * *

System: synaptic benzodiazepine-sensitive receptors (BZR), GABAAR
Test: 3H-flunitrazepam binding, rat brain homogenate
Details: at 10,000 nM
recorded_metric: BZR % (percent inhibition) (%)
One number for each entry, in %.

As a guide, the following entries are already answered.
C#Cc1ccc2c(c1)C(c1ccccc1F)=N[C@@H](C)c1c(C(=O)N(C)C)ncn1-2
94
C#Cc1ccc2c(c1)C(c1ccccc1F)=N[C@H](C)c1c(C(=O)N(C)C)ncn1-2
75
C[C@H]1N=C(c2ccccc2F)c2cc(Br)ccc2-n2cnc(C(=O)N(C)C)c21
100
CCNC(=O)c1ncn2c1[C@@H](C)N=C(c1ccccc1F)c1cc(C3CC3)ccc1-2
100

Please go through the list and note BZR % (percent inhibition) for each compound.
1. COC(=O)c1ncn2c1[C@@H](C)N=C(c1ccccc1F)c1cc(Br)ccc1-2
2. C#Cc1ccc2c(c1)C(c1ccccn1)=N[C@H](C)c1c(C(=O)OC)ncn1-2

[86, 63]

* * *

Molecular target: UniProtKB P35372
Test: Radioligand competition binding, MOR ([3H]-DAMGO), HEK293 cell homogenates
Conditions: read-out: MOR % (percent inhibition), at 10,000 nM; [3H]-DAMGO
recorded_metric: inhibition at 10 µM (%)
Answers are plain numbers, in %.

As a guide, the following entries are already answered.
C#Cc1ccc2c(c1)C(c1ccccc1F)=N[C@H](C)c1c(C(=O)NC)ncn1-2
3
C#Cc1ccc2c(c1)C(c1ccccc1F)=N[C@@H](C)c1c(C(=O)OC3CC3)ncn1-2
18
Brc1ccc2c(c1)C(c1ccccn1)=NCc1c(-c3cnco3)ncn1-2
18
C[C@H]1N=C(c2ccccc2F)c2cc(Br)ccc2-n2cnc(C(=O)O)c21
0
C#Cc1ccc2c(c1)C(c1ccccn1)=N[C@H](C)c1c(C(=O)OCC)ncn1-2
17
C#Cc1ccc2c(c1)C(c1ccccc1F)=N[C@@H](C)c1c(C(=O)OCC(F)(F)F)ncn1-2
8
C[C@H]1N=C(c2ccccc2F)c2cc(Cl)ccc2-n2cnc(C(=O)O)c21
0
C#Cc1ccc2c(c1)C(c1ccccc1F)=N[C@H](C)c1c(C(=O)OC)ncn1-2
0
C#Cc1ccc2c(c1)C(c1ccccn1)=N[C@H](C)c1c(C(=O)O)ncn1-2
20
CCNC(=O)c1ncn2c1[C@@H](C)N=C(c1ccccc1F)c1cc(C3CC3)ccc1-2
0

Please go through the list and note inhibition at 10 µM for each molecule.
1. C#Cc1ccc2c(c1)C(c1ccccc1F)=N[C@H](C)c1c(C(=O)O)ncn1-2
2. C#Cc1ccc2c(c1)C(c1ccccc1F)=N[C@@H](C)c1c(C(=O)OC(C)(C)C)ncn1-2
3. C#Cc1ccc2c(c1)C(c1ccccn1)=NCc1c(-c3cnco3)ncn1-2
4. C#Cc1ccc2c(c1)C(c1ccccc1F)=N[C@H](C)c1c(C(=O)N3CCCC3)ncn1-2
5. C#Cc1ccc2c(c1)C(c1ccccc1F)=N[C@H](C)c1c(C(=O)NC(C)C)ncn1-2

0
54
30
0
0

Please go through the list and note inhibition at 10 µM for each molecule.
1. C#Cc1ccc2c(c1)C(c1ccccn1)=NCc1c(C(=O)O)ncn1-2
2. C#Cc1ccc2c(c1)C(c1ccccc1F)=N[C@@H](C)c1c(C(=O)NC(C)(C)C)ncn1-2

8
40

* * *

Molecular target: κ opioid receptor (KOR) (Homo sapiens)
Experiment: Radioligand competition binding, KOR ([3H]-U69593), HEK293 cell homogenates
Conditions: at 10,000 nM; [3H]-U69593
Task for the reader: assign each of the following molecules its reported KOR % (percent inhibition).
Answers are plain numbers, in %.

As a guide, the following entries are already answered.
C#Cc1ccc2c(c1)C(c1ccccc1F)=N[C@H](C)c1c(-c3nc(C(C)C)no3)ncn1-2
94
CCOC(=O)c1ncn2c1[C@H](C)N=C(c1ccccc1F)c1cc(C3CC3)ccc1-2
96
C[C@H]1N=C(c2ccccc2F)c2cc(Br)ccc2-n2cnc(-c3cnco3)c21
88

Please go through the list and note KOR % (percent inhibition) for each molecule.
1. C#Cc1ccc2c(c1)C(c1ccccc1F)=N[C@@H](C)c1c(-c3nc(C(C)C)no3)ncn1-2
2. C[C@@H]1N=C(c2ccccc2F)c2cc(Br)ccc2-n2cnc(-c3cnco3)c21
3. Cc1noc(-c2ncn3c2[C@@H](C)N=C(c2ccccc2F)c2cc(C4CC4)ccc2-3)n1
4. CCc1noc(-c2ncn3c2[C@@H](C)N=C(c2ccccc2F)c2cc(C4CC4)ccc2-3)n1
5. C#Cc1ccc2c(c1)C(c1ccccc1F)=N[C@@H](C)c1c(-c3cnco3)ncn1-2

1. 93
2. 83
3. 78
4. 91
5. 74

* * *

Molecular target: κ opioid receptor (KOR) (Homo sapiens)
Assay: Radioligand competition binding, KOR ([3H]-U69593), HEK293 cell homogenates
Details: read-out: KOR % (percent inhibition), at 10,000 nM; [3H]-U69593
Cut-off 80% on inhibition at 10 µM, inclusive. At or above means Criterion met; below means Criterion not met.

Check out these entries, answers already filled in.
C#Cc1ccc2c(c1)C(c1ccccn1)=N[C@H](C)c1c(C(=O)OCC)ncn1-2
Criterion not met
C#Cc1ccc2c(c1)C(c1ccccc1F)=N[C@@H](C)c1c(C(=O)NC3CC3)ncn1-2
Criterion met
C#Cc1ccc2c(c1)C(c1ccccc1F)=N[C@@H](C)c1c(C(=O)OC(C)(C)CC)ncn1-2
Criterion met
C#Cc1ccc2c(c1)C(c1ccccn1)=NCc1c(-c3ocnc3C)ncn1-2
Criterion not met
C#Cc1ccc2c(c1)C(c1ccccc1F)=N[C@@H](C)c1c(C(=O)NC(C)(C)C)ncn1-2
Criterion met
C#Cc1ccc2c(c1)C(c1ccccc1F)=N[C@@H](C)c1c(C(=O)NCC)ncn1-2
Criterion met
C#Cc1ccc2c(c1)C(c1ccccc1F)=N[C@@H](C)c1c(C(=O)OC3CC3)ncn1-2
Criterion met
Cc1ncoc1-c1ncn2c1CN=C(c1ccccc1)c1cc(Br)ccc1-2
Criterion not met

Hello, I need to know if Brc1ccc2c(c1)C(c1ccccc1)=NCc1c(-c3cnco3)ncn1-2 has measured inhibition at 10 µM not below 80%. Thanks! Criterion met

Hello, I need to know if C#Cc1ccc2c(c1)C(c1ccccc1F)=N[C@@H](C)c1c(C(=O)OC(C)C)ncn1-2 has measured inhibition at 10 µM not below 80%. Thanks! Criterion met

* * *

Target: δ opioid receptor (DOR) (Homo sapiens)
Assay: Radioligand competition binding, DOR ([3H]-DADLE), HEK293 cell homogenates
Conditions: read-out: DOR % (percent inhibition), at 10,000 nM
Cut-off 10% on inhibition at 10 µM, inclusive. At or above means class 1; below means class 0.

Check out these entries, answers already filled in.
Cc1ncoc1-c1ncn2c1CN=C(c1ccccc1)c1cc(Br)ccc1-2
class 1
C#Cc1ccc2c(c1)C(c1ccccc1F)=N[C@@H](C)c1c(C(=O)NC)ncn1-2
class 1
C#Cc1ccc2c(c1)C(c1ccccc1F)=N[C@H](C)c1c(C(=O)NC)ncn1-2
class 1

Hello, I need to know if C#Cc1ccc2c(c1)C(c1ccccn1)=N[C@H](C)c1c(C(=O)OC)ncn1-2 has measured inhibition at 10 µM not below 10%. Thanks! class 0

Hello, I need to know if C#Cc1ccc2c(c1)C(c1ccccn1)=NCc1c(C(=O)OC(C)C)ncn1-2 has measured inhibition at 10 µM not below 10%. Thanks! class 1
